# measured.on: 5-HT1A receptors (Homo sapiens)
# Sequence (P08908 whole entry): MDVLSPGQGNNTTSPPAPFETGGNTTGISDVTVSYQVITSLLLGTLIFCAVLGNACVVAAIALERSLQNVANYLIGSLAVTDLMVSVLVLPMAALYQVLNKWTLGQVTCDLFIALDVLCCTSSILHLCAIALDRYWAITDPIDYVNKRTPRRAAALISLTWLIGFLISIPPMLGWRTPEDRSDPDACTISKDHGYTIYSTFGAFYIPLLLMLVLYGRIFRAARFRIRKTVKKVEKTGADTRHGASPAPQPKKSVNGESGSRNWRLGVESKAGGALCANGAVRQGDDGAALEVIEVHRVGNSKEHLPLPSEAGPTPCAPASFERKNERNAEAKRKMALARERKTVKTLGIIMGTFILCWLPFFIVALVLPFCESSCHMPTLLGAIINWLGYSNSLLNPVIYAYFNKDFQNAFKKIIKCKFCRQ
# method.description: 5-HT1A receptor affinity (Schipper et al., 1991)
# Assay type: binding
# test.settings: converted from Ki of Schipper et al.
measurement.label: pKi
# log scale: pKi equals minus log10 of the concentration in mol/L

Quick check: pKi of Cl.O=C(NCCN1CCN(c2cccc3c2OCC(CO)O3)CC1)c1ccc(F)cc1 (single isomer, unassigned; (+)) [flesinoxan, HCl] ?
8.77

Just for reference, patent US20050004105A1 is where these values come from.
